Tested on: Escherichia coli TOP10
assayProtocol: shrunken log2 fold change of peptide-encoding DNA abundance (4.5 h post-induction vs induction); higher = less antimicrobial activity (less host growth inhibition)
conditionsUsed: time post-induction: 4.5 h; library: site-saturation at positions 5, 18, 19, 20
readout: shrunken log2 fold change
Reply: number alone, nothing else.

Exam item: Record request: shrunken log2 fold change value, item "RRIRRRPPRLPRPRPRPCILPRP"
Marked response: -0.208

Exam item: Record request: shrunken log2 fold change value, item "RRIRHRPPRLPRPRPRPSGTPRP"
Marked response: -0.0258

====

Test system: Escherichia coli TOP10
assayProtocol: shrunken log2 fold change of peptide-encoding DNA abundance (4.5 h post-induction vs induction); higher = less antimicrobial activity (less host growth inhibition)
conditionsUsed: time post-induction: 4.5 h; library: site-saturation at positions 5, 18, 19, 20
So basically: shrunken log2 fold change at -0.1 or higher? That is 1.0. Lower than -0.1? That is 0.0.

Here's what some known entries look like.
| sequenceRecord | qualitativeLabel |
| --- | --- |
| RRIRLRPPRLPRPRPRPIRPPRP | 0.0 |
| RRIRVRPPRLPRPRPRPGRQPRP | 1.0 |

Exam item: Hello, I need to know if "RRIRHRPPRLPRPRPRPDGIPRP" has measured shrunken log2 fold change not below -0.1. Thanks!
Marked response: 1.0

Exam item: Hello, I need to know if "RRIRQRPPRLPRPRPRPMMPPRP" has measured shrunken log2 fold change not below -0.1. Thanks!
Marked response: 1.0

Exam item: Hello, I need to know if "RRIRARPPRLPRPRPRPDHRPRP" has measured shrunken log2 fold change not below -0.1. Thanks!
Marked response: 1.0

Exam item: Hello, I need to know if "RRIRVRPPRLPRPRPRPEHDPRP" has measured shrunken log2 fold change not below -0.1. Thanks!
Marked response: 0.0

Exam item: Hello, I need to know if "RRIRVRPPRLPRPRPRPCTQPRP" has measured shrunken log2 fold change not below -0.1. Thanks!
Marked response: 0.0

Exam item: Hello, I need to know if "RRIRKRPPRLPRPRPRPHSTPRP" has measured shrunken log2 fold change not below -0.1. Thanks!
Marked response: 1.0

====

System: Escherichia coli TOP10;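 also: peptides expressed intracellularly from a pBAD plasmid library in pooled LB shake-flask culture, induced with 0.3% L-arabinose, DNA abundance read by NGS, three biological replicates, DESeq2 with apeglm shrinkage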
assayProtocol: shrunken log2 fold change of peptide-encoding DNA abundance (4.5 h post-induction vs induction); higher = less antimicrobial activity (less host growth inhibition)
conditionsUsed: time post-induction: 4.5 h; library: site-saturation at positions 5, 18, 19, 20
So basically: shrunken log2 fold change at -0.07 or higher? That is satisfied. Lower than -0.07? That is not satisfied.

Here's what some known entries look like.
| sequenceRecord | qualitativeLabel |
| --- | --- |
| RRIRGRPPRLPRPRPRPTMDPRP | satisfied |
| RRIRKRPPRLPRPRPRPWNRPRP | not satisfied |
| RRIRSRPPRLPRPRPRPKPHPRP | satisfied |
| RRIRGRPPRLPRPRPRPALNPRP | satisfied |
| RRIRCRPPRLPRPRPRPQVGPRP | not satisfied |
| RRIRHRPPRLPRPRPRPDSSPRP | satisfied |
| RRIRIRPPRLPRPRPRPERMPRP | satisfied |
| RRIRPRPPRLPRPRPRPESNPRP | satisfied |
| RRIRQRPPRLPRPRPRPSPLPRP | satisfied |
| RRIRYRPPRLPRPRPRPTDYPRP | not satisfied |

Exam item: Hello, I need to know if "RRIRKRPPRLPRPRPRPQEIPRP" has measured shrunken log2 fold change not below -0.07. Thanks!
Marked response: satisfied

Exam item: Hello, I need to know if "RRIRHRPPRLPRPRPRPEYLPRP" has measured shrunken log2 fold change not below -0.07. Thanks!
Marked response: satisfied
